Kindly state screen value (relative to wild-type phyB Pr = 1) for each of the entries shown.
B1: full-length phytochrome B (phyB), wild type, in vitro translated [modified: 35S-methionine labelled; 35S-methionine labelled] [Arabidopsis thaliana] / GAD-PIF3, in vitro translated [modified: 35S-methionine labelled … (parent)
chain 1: MVSGVGGSGGGRGGGRGGEEEPSSSHTPNNRRGGEQAQSSGTKSLRPRSNTESMSKAIQQYTVDARLHAVFEQSGESGKSFDYSQSLKTTTYGSSVPEQQITAYLSRIQRGGYIQPFGCMIAVDESSFRIIGYSENAREMLGIMPQSVPTLEKPEILAMGTDVRSLFTSSSSILLERAFVAREITLLNPVWIHSKNTGKPFYAILHRIDVGVVIDLEPARTEDPALSIAGAVQSQKLAVRAISQLQALPGGDIKLLCDTVVESVRDLTGYDRVMVYKFHEDEHGEVVAESKRDDLEPYIGLHYPATDIPQASRFLFKQNRVRMIVDCNATPVLVVQDDRLTQSMCLVGSTLRAPHGCHSQYMANMGSIASLAMAVIINGNEDDGSNVASGRSSMRLWGLVVCHHTSSRCIPFPLRYACEFLMQAFGLQLNMELQLALQMSEKRVLRTQTLLCDMLLRDSPAGIVTQSPSIMDLVKCDGAAFLYHGKYYPLGVAPSEVQIKDVVEWLLANHADSTGLSTDSLGDAGYPGAAALGDAVCGMAVAYITKRDFLFWFRSHTAKEIKWGGAKHHPEDKDDGQRMHPRSSFQAFLEVVKSRSQPWETAEMDAIHSLQLILRDSFKESEAAMNSKVVDGVVQPCRDMAGEQGIDELGAVAREMVRLIETATVPIFAVDAGGCINGWNAKIAELTGLSVEEAMGKSLVSDLIYKENEATVNKLLSRALRGDEEKNVEVKLKTFSPELQGKAVFVVVNACSSKDYLNNIVGVCFVGQDVTSQKIVMDKFINIQGDYKAIVHSPNPLIPPIFAADENTCCLEWNMAMEKLTGWSRSEVIGKMIVGEVFGSCCMLKGPDALTKFMIVLHNAIGGQDTDKFPFPFFDRNGKFVQALLTANKRVSLEGKVIGAFCFLQIPSPELQQALAVQRRQDTECFTKAKELAYICQVIKNPLSGMRFANSLLEATDLNEDQKQLLETSVSCEKQISRIVGDMDLESIEDGSFVLKREEFFLGSVINAIVSQAMFLLRDRGLQLIRDIPEEIKSIEVFGDQIRIQQLLAEFLLSIIRYAPSQEWVEIHLSQLSKQMADGFAAIRTEFRMACPGEGLPPELVRDMFHSSRWTSPEGLGLSVCRKILKLMNGEVQYIRESERSYFLIILELPVPRKRPLSTASGSGDMMLMMPY
chain 2: MPLFELFRLTKAKLESAQDRNPSPPVDEVVELVWENGQISTQSQSSRSRNIPPPQANSSRAREIGNGSKTTMVDEIPMSVPSLMTGLSQDDDFVPWLNHHPSLDGYCSDFLRDVSSPVTVNEQESDMAVNQTAFPLFQRRKDGNESAPAASSSQYNGFQSHSLYGSDRARDLPSQQTNPDRFTQTQEPLITSNKPSLVNFSHFLRPATFAKTTNNNLHDTKEKSPQSPPNVFQTRVLGAKDSEDKVLNESVASATPKDNQKACLISEDSCRKDQESEKAVVCSSVGSGNSLDGPSESPSLSLKRKHSNIQDIDCHSEDVEEESGDGRKEAGPSRTGLGSKRSRSAEVHNLSERRRRDRINEKMRALQELIPNCNKVDKASMLDEAIEYLKSLQLQVQIMSMASGYYLPPAVMFPPGMGHYPAAAAAMAMGMGMPYAMGLPDLSRGGSSVNHGPQFQVSGMQQQPVAMGIPRVSGGGIFAGSSTIGNGSTRDLSGSKDQTTTNNNSNLKPIKRKQGSSDQFCGSS

Variants of: B1
testSummary: in vitro co-immunoprecipitation
experimentalSetup: with GAD-PIF3, in vitro translated [modified: 35S-methionine labelled, phyB in Pfr form, GAD-PIF3 as bait, phyB as prey, 35S-met in vitro translated proteins, parent: 13, read off a plot
Numbers only.

// known answers, use as guide
mutationKey	valueMeasured
chain 1 L256C	2.8
chain 1 V264E	1.9
chain 1 G348D	2.6

--- query ---
Record request: screen value (relative to wild-type phyB Pr = 1) value, item chain 1 S343Y
1.7
